# TARGET_DESC: T1, human GARP-proTGFβ1 complex (human, UniProt Q14392 18-627; P01137 30-390, limits assumed)
# T1 construct: Exemplary entries; also called Hu GARP-proTGFβ1; huGARP proTGFb1
# PROTOCOL_TEXT: Octet BLI, Table 10 (repeats Table 9)
MEASURED_QUANTITY: Kd (nM)
Write it as a number; the unit nM goes unstated.

{"BINDER": "SR-AB37 (antibody, IgG1, V domains shown, Cycle 3, lineage SR-AB22) VH: QVQLVESGGGVVQPGRSLRLSCAASGFTFRSYVMHWVRQAPGKGLEWVAVISHEGSLKYYADSVKGRFTISRDNSKNTLYLQMNSLRAEDTAVYYCAVPRIAARRGGFGYWGQGTLVTVSS VL: NFMLTQPHSVSESPGKTVTISCTRSSGLIDDNYVQWYQQRPGSSPTTVIYEDNQRPSGVPDRFSGSIDSSSNSASLTISGLKTEDEADYYCQSYDSDLQRVVFGGGTKLTVL", "Kd / nM": 36.1}

Now for the binder whose Kd we want.
Specify reported Kd for the binder shown: SR-AB44 (antibody, IgG1, V domains shown, Cycle 3, lineage SR-AB23) VH: QVQLVESGGGVVQPGRSLRLSCAASGFTFRSYVMHWVRQAPGKGLEWVAVISHEGSLKYYADSVKGRFTISRDNSKNTLYLQMNSLRAEDTAVYYCARPRIAARRGGFGYWGQGTLVTVSS VL: NFMLTQPHSVSESPGKTVTISCTRSHGNIDDNYVQWYQQRPGSSPTTVIYEDNVRPSGVPDRFSGSIDSSSNSASLTISGLKTEDEADYYCQSYDSDNQLVVFGGGTKLTVL
212

Recorded values, source patent US20220064276A1.
